system: LXRb homodimer (NR concentration 270 nM); assay: PBM binding z-score (relative to random genomic background probes); higher = stronger binding; sequences stand for … in GC…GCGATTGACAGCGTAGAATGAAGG
measurement kind: PBM binding z-score
One number for each entry.

// batch mode: one PBM binding z-score value per listed entry
1. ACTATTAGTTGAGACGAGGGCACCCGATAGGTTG
2. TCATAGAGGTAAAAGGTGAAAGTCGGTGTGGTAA

1: 0.318; 2: -0.828

###

test system: RXRa DBDmut IVT, anti-RXR (DBD mutation: RXRa K156A/R161A, NR concentration 90 nM); assay: PBM binding z-score (relative to random genomic background probes); higher = stronger binding; sequences stand for … in GC…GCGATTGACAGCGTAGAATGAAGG
Task for the reader: assign each of the following sequences its reported PBM binding z-score.

Consider the worked cases shown below.
sequence data | PBM binding z-score
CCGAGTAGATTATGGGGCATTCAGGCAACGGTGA | 0.349
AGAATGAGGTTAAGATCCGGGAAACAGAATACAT | 0.76
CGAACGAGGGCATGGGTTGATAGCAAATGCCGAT | 1.93
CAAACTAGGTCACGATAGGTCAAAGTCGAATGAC | 2.13
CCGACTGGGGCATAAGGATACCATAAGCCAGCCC | -0.682

Given the sequence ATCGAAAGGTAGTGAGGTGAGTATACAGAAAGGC , write its reported PBM binding z-score.
-0.693

###

Task for the reader: assign each of the following sequences its reported PBM binding z-score.
tested on: VDR homodimer (NR concentration 270 nM); assay: PBM binding z-score (relative to random genomic background probes); higher = stronger binding; sequences stand for … in GC…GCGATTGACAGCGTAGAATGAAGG
Give bare numbers.

Consider the worked cases shown below.
sequence data | PBM binding z-score
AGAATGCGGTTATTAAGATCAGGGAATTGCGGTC | -0.264
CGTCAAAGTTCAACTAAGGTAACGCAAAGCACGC | 3.54
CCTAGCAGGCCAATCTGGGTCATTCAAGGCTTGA | 0.585
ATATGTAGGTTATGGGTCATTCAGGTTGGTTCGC | 2.76
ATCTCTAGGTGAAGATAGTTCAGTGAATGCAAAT | 0.334
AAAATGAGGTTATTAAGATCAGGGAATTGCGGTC | 1.19
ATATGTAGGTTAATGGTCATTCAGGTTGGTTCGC | 1.34
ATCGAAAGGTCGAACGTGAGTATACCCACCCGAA | 0.989
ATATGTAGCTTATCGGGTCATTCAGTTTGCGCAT | 3.7
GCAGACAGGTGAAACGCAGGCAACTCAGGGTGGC | -0.588

// batch mode: one PBM binding z-score value per listed entry
1. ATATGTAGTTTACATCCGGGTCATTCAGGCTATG
2. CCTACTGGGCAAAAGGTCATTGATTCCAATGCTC
3. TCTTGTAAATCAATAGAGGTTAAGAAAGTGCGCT

1: 2.82; 2: 1.72; 3: 0.639

// batch mode: one PBM binding z-score value per listed entry
1. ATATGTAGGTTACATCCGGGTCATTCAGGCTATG
2. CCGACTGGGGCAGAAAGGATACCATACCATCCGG
3. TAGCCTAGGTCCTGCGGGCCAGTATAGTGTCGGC
4. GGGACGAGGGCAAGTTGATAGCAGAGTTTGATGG
5. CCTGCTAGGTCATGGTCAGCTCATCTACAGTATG
6. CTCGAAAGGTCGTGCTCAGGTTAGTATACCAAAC
7. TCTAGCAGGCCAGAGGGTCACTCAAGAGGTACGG

1: 2.83; 2: -0.566; 3: -0.992; 4: 2.05; 5: 0.458; 6: 1.3; 7: 0.59

// batch mode: one PBM binding z-score value per listed entry
1. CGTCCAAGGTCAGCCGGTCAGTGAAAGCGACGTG
2. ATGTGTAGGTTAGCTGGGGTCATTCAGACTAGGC
3. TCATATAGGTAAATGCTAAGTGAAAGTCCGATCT
4. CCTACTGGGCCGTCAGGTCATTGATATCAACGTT
5. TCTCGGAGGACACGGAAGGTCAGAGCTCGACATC
6. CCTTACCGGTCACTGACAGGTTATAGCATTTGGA

0.973
5.92
0.0364
1.16
1.01
0.617
